# credit: PubChem BioAssay (NCI)

System: MOLT-4 leukemia
Assay: NCI-60 one-dose screen, 48 h
Details: 10 µM unless noted
This is part of a sample that, as a whole, favours compounds with a hit. Of some 83,000 tested, about 20% had one in any assay. Active and inactive are the calls of the source. Rule for the calls: active = growth percent below 10; inactive = the rest.
Please reply with one of these outcomes: Y = active, N = inactive

Recorded results for 3 compounds are shown here.
| compound | assigned_label |
| --- | --- |
| O=C(NCc1ccccc1)C(Cl)Cl | N |
| COCCCNc1nc(NC(=O)c2cc(OC)cc(OC)c2)cc(-c2cccnc2)n1 | N |
| COc1ccc2nc3cc(Cl)ccc3c(Nc3ccc(O)cc3)c2c1 | Y |

QUERY: So what was the verdict on Oc1c(CNCCNCc2cc(Cl)cc(Cc3ccccc3)c2O)cc(Cl)cc1Cc1ccccc1 in this test?
RESULT: N

QUERY: So what was the verdict on CCN(CC)CCCC(C)Nc1c2ccc(C)cc2nc2ccc(OC)cc12 (stereo unspecified) in this test?
RESULT: Y

QUERY: So what was the verdict on COc1cc2c(c(Br)c1N)-c1cc(Br)c(N)cc1C2=O in this test?
RESULT: N

QUERY: So what was the verdict on CN(C)CCCNc1nc(-c2cccc(C(Cl)(Cl)Cl)c2)nc(C(Cl)(Cl)Cl)n1 in this test?
RESULT: N

QUERY: So what was the verdict on O=C(CSc1nc2ccc([N+](=O)[O-])cc2[nH]1)Nc1ccc(F)c(Cl)c1 in this test?
RESULT: Y

QUERY: So what was the verdict on CCOC(CNC(=O)c1cccc([N+](=O)[O-])c1)OCC in this test?
RESULT: N

* * *

System: OVCAR-5 ovarian
Assay: NCI-60 one-dose screen, 48 h (100 = growth as untreated, 0 = no growth, -100 = all killed)
Settings: 10 µM unless noted
This is part of a sample that, as a whole, favours compounds with a hit. Of some 83,000 tested, about 20% had one in any assay. Active and inactive are the calls of the source. Rule for the calls: active = growth percent below 10; inactive = the rest.
Listing of recorded growth by entry.

Example entries begin here.
| structure_as_smiles | growth |
| --- | --- |
| c1ccc(-c2n[nH]c(-c3ccccn3)n2)nc1 | 100% (inactive) |
| Cn1cc(-c2noc(C(=O)c3cn(C)c4ncccc34)n2)c2ccccc21 | 96.1% (inactive) |
| COc1cc2c(O)n(CCCN3CCOCC3)c3c4cnc5cccc(c(=O)c3c2cc1OC)c54 | 69% (inactive) |
| CC1(C)CC[C@]2(C(=O)OC(=O)[C@]34CCC(C)(C)C[C@@H]3C3=CC[C@@H]5[C@@]6(C)CCC(=O)C(C)(C)[C@@H]6CC[C@@]5(C)[C@]3(C)CC4)CC[C@]3(C)C(=CC[C@@H]4[C@@]5(C)CCC(=O)C(C)(C)[C@@H]5CC[C@]43C)[C@H]2C1 | 98.3% [100 µM] (inactive) |
| CCc1ccc(NC(=O)N[C@@H](Cc2cc(F)cc(F)c2)C(=O)N[C@@H]2C(=O)N3C[C@H](O)C[C@H]3C(=O)N3CCOC[C@H]3C(=O)N[C@@H](C)C(=O)N3C[C@H](C)C[C@H]3C(=O)O[C@H]2C)cc1 | 46.3% (inactive) |

QUERY: Specify growth for CC(C)OC(=O)Nc1cc(F)ccc1F and stop.
RESULT: 93.8% (inactive)

QUERY: Specify growth for Cc1ccc2c(c1)/C(=N\N=C/c1cn(C(C)C)c3ccccc13)C(=O)N2 and stop.
RESULT: 70.2% (inactive)
